Each entry below carries its reported FACS-Seq fitted mean (log10).
B1: library; a variant is named by its letters at N, in order (parent)
chain: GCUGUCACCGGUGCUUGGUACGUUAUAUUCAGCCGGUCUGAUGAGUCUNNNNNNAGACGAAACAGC

Variants of: B1
experiment-description: FACS-Seq fitted mean relative fluorescence mCherry/BFP without ligand (log10 relative fluorescence); HEK293T overexpressing SLC46A1; higher = higher reporter protein expression
run-parameters: without (6R,S)-folinic acid; ligand present: no
measurement-label: FACS-Seq fitted mean (log10)

{"columns": ["variant-descriptor", "result"],
 "data": [
  ["CCGAGC", 0.201],
  ["GCAUUA", 0.539],
  ["UAUUAG", -0.162],
  ["UGCUAA", 0.427],
  ["UUUACU", 0.0671],
  ["CGUCUC", 0.692],
  ["AUGAAG", 0.432],
  ["AUACAA", 0.428],
  ["AGACCU", 0.618],
  ["UCCGCG", 0.277],
  ["UCGUAA", -0.407],
  ["AAAUUC", 0.629],
  ["GAUUAG", -0.00141],
  ["AAUGUC", -0.0892],
  ["GAGUGU", 0.00433],
  ["GGCACU", -0.00197],
  ["AUAGGG", -0.255],
  ["UACAGA", 0.358],
  ["GAUGAA", 0.212],
  ["AUAUGA", 0.209],
  ["GACUAG", 0.271],
  ["AUCUUG", 0.284]
]}
